biological target: PDGFRβ (Rattus norvegicus (Rat)); test: PDGFRβ Cellular Assay (PDGFRb P-Y751 HTRF, PDGF-BB stimulated A10 cells); type: cell-based; details: A10 cells, 3 hours compound, 15 ng/mL PDGFbb for 10 minutes; read-out: PDGFR Cellular IC50
Sequence (Q05030 whole entry, looked up): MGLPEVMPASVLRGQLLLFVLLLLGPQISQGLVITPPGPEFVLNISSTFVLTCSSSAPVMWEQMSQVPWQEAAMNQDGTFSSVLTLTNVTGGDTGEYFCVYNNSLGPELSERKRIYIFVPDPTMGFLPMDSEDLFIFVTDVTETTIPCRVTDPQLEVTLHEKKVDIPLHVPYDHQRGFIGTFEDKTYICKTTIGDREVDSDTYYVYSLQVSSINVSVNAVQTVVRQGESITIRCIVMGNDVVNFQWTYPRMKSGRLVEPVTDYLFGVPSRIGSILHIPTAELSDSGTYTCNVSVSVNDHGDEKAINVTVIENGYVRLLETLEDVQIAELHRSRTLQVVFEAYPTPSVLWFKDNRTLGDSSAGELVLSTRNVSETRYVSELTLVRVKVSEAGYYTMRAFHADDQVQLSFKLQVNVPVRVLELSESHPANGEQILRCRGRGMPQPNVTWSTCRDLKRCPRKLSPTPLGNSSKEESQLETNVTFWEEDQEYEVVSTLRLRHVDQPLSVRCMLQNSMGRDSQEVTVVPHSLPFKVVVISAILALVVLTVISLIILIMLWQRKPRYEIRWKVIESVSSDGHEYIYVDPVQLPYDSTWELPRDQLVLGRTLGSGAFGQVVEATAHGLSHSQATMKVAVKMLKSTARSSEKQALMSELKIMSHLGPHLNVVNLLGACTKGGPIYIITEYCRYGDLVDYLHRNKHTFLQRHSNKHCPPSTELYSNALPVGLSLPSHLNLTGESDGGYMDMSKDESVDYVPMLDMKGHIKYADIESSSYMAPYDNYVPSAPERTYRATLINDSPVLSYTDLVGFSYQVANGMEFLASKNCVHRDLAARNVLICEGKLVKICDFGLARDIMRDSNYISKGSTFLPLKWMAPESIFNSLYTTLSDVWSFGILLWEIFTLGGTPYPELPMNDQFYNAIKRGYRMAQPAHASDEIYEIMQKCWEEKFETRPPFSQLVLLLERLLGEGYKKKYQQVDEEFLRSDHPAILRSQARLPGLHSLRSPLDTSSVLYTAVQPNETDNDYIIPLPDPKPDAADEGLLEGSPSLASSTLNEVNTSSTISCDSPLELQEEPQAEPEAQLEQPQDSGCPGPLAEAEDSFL
Labelling field: enter Yes if recorded IC50 is less than 70 nM. Enter No if it equals or exceeds that cut-off.

Inquiry: Say whether its IC50 is strictly beneath 70 nM. Entry: `Cc1ncc(NC(=O)CN2CCCC2)cc1Nc1nn(C)c2nc(Nc3cnn(C)c3)ncc12`
Reply text: Yes

Inquiry: Say whether its IC50 is strictly beneath 70 nM. Entry: `Cc1ncc(C(=O)NCCN2CCCC2(C)C)cc1Nc1nn(C)c2nc(Nc3ccc(=O)[nH]n3)ncc12`
Reply text: No

Inquiry: Say whether its IC50 is strictly beneath 70 nM. Entry: `Cn1nc(Nc2cc(C(=O)NCCN3CCCC3(C)C)ccc2F)c2cnc(Nc3cncnc3)nc21`
Reply text: Yes

Inquiry: Say whether its IC50 is strictly beneath 70 nM. Entry: `C[C@H]1CCCN1CCNC(=O)c1ccc(F)c(Nc2nn(C)c3nc(Nc4cnn(C)c4)ncc23)c1`
Reply text: Yes

Inquiry: Say whether its IC50 is strictly beneath 70 nM. Entry: `Cc1ncc(C(=O)NCCN2CCC3(CC3)C2)cc1Nc1nn(C)c2nc(Nc3cncnc3)ncc12`
Reply text: No

Inquiry: Say whether its IC50 is strictly beneath 70 nM. Entry: `Cc1cc(C(=O)NCCN2CCCC2(C)C)sc1Nc1nn(C)c2nc(Nc3cncnc3)ncc12`
Reply text: No

Inquiry: Say whether its IC50 is strictly beneath 70 nM. Entry: `Cc1ncc(C(=O)NCCN2CCCC2(C)C)cc1Nc1nn(C)c2nc(Nc3cnn(C)c3C)ncc12`
Reply text: Yes

###

biological target: Tb-labeled inactive PDGFRβ (Homo sapiens (Human)); test: biochemical; type: binding; settings: read-out: PDGFR Lantha IC50
Sequence (P09619 whole entry, looked up): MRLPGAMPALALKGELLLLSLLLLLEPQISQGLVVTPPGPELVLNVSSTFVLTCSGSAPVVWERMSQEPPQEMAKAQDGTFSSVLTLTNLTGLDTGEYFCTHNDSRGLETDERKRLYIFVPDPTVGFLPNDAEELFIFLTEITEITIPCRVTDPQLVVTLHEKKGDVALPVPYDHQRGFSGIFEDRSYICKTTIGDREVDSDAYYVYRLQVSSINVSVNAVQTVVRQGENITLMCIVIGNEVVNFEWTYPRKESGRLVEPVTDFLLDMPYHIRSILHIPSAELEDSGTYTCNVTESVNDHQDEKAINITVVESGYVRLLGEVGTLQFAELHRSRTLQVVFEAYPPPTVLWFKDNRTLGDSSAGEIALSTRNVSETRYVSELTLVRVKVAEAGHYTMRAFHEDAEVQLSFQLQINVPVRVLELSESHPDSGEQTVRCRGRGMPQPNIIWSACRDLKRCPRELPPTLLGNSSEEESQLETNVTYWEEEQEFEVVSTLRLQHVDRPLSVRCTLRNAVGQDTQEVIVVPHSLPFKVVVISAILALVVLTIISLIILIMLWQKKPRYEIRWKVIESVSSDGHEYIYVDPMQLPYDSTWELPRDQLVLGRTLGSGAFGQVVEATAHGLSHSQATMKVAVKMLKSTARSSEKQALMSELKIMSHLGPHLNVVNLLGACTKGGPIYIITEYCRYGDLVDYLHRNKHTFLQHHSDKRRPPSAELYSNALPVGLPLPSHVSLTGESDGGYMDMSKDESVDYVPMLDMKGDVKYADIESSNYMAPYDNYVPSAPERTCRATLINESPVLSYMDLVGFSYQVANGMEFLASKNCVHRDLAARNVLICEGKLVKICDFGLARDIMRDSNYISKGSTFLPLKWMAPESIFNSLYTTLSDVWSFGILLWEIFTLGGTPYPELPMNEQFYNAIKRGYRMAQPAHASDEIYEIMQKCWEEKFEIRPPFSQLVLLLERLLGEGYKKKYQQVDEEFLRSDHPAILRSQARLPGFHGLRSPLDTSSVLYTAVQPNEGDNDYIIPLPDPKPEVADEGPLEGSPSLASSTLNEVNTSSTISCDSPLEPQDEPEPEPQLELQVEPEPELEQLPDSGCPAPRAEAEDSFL
Parameter: pIC50. Scope: all listed entries.
# pIC50 is unitless: minus log10 of the molar concentration; print number only

// worked examples, pIC50 included
{"columns": ["Compound", "Meas value"],
 "data": [
  ["Cn1nc(Nc2cc(C(=O)NCCN3CCCC3(C)C)ccc2F)c2cnc(Nc3ccncn3)nc21 [Example 52]", 6.80],
  ["Cc1ccc(C(=O)NCCN2CC(C)(C)C2)cc1Nc1nn(C)c2nc(Nc3cnn(C)c3)ncc12 [Example 64]", 8.68],
  ["Cc1ncc(C(=O)NCCN2CCC23CCC3)cc1Nc1nn(C)c2nc(Nc3cnn(C)c3)ncc12 [Example 149]", 8.66]
]}

Next up:
Inquiry: State the recorded pIC50 for this entry: Cc1cc(C(=O)NCCN2CCCC2(C)C)sc1Nc1nn(C)c2nc(Nc3cncnc3)ncc12 [Example 48]
Reply text: 7.28

###

biological target: Tb-labeled inactive PDGFRβ (Homo sapiens (Human)); assay: biochemical; format: binding; conditions: read-out: PDGFR Lantha IC50
Property name: IC50 (nM)
Report as a plain number; the unit nM is understood.

// worked examples, IC50 included
{"columns": ["Compound", "Meas value"],
 "data": [
  ["Cc1ncccc1Nc1ncc2c(Nc3cc(NC(=O)CN4CCC[C@@H]4C)cnc3C)nn(C)c2n1 [Example 145]", 15.3],
  ["COCCn1cc(Nc2ncc3c(Nc4cc(NC(=O)CN5CCC6(CC6)C5)cnc4C)nn(C)c3n2)cn1 [Example 124]", 1.6],
  ["CO[C@H]1CCN(CC(=O)Nc2cnc(C)c(Nc3nn(C)c4nc(Nc5cnn(C)c5)ncc34)c2)C1 [Example 136]", 3.7]
]}

Inquiry: State the recorded IC50 for this entry: COCCn1cc(Nc2ncc3c(Nc4cc(C(=O)NCCN5CCCC56CCC6)cnc4C)nn(C)c3n2)cn1 [Example 147]
Reply text: 2.1

The origin of these recorded values is patent US20240360134A1.
